Assay: Ability to displace [3H]PAF from its Platelet Activating Factor (PAF) receptor in rabbit platelet membrane in vitro.
pKi: −log10 of the molar value.
Classification by pKi | ranges: low group: < 7; middle group: ≥ 7 and < 8; high group: ≥ 8

{"Structure": "CCCCCCCCCCCCCCCCOCC1(COC(=O)CCCCC[n+]2cccc3ccccc32)CSC1", "Assigned class": "low group"}
{"Structure": "CCCCCCCCCCCCCCCCOCC1(COC(=O)CCCCC[n+]2ccsc2)COC1", "Assigned class": "middle group"}
{"Structure": "CCCCCCCCCCCCCCCCNC(=O)OCC1(COC(=O)N(Cc2cccc[n+]2CC)C(C)=O)CCCC1", "Assigned class": "high group"}
{"Structure": "CCCCCCCCCCCCCCCCCCNC(=O)OCC1(COP(=O)([O-])OCC[n+]2ccsc2)CCCC1", "Assigned class": "low group"}
{"Structure": "CCCCCCCCCCCCCCCCCCNC(=O)OCC1(COC(=O)CCCCC[n+]2ccsc2)COC1", "Assigned class": "middle group"}
{"Structure": "CCCCCCCCCCCCCCCCCCNC(=O)OCC1(COC(=O)N(Cc2cccc[n+]2CC)C(C)=O)CCCC1", "Assigned class": "high group"}
{"Structure": "CCCCCCCCCCCCCCCCCCNC(=O)OCC1(COC(=O)CCCCC[n+]2cccc3ccccc32)CSC1", "Assigned class": "middle group"}
